biological target: Cathepsin B (Homo sapiens); experiment: human cathepsin B inhibitors, primary screen, biochemical, fluorogenic substrate (AID 453); details: purified cathepsin B, fluorescence, hits give high values,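 tested at 10 µM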;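 further: 0% = enzyme with no compound and 100% = no enzyme blank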
Out of some 63,000 compounds screened, about 75 (0.1%) were called active. The sample as a whole holds a higher share of actives than the screen did.
endpoint: inhibition (%)
Answers are plain numbers, in %.

Here are 5 compounds together with their reported answers.
COc1ccc(CCN2C(=O)c3[nH]nc(-c4ccccc4O)c3C2c2ccc(C)cc2)cc1OC (stereo unspecified) :: -1.75
COc1ccc(N2C(=O)C3CCCN3C2c2cccs2)cc1 (stereo unspecified) :: 2.37
COc1ccc(C(=O)Nc2ccc3c(c2)OCO3)cc1OC :: 1.65
CCOc1ccccc1C1NC(=O)NC(C)=C1C(=O)OCc1ccco1 (stereo unspecified) :: 2.19
COCCCN1C(=O)C(=O)/C(=C(/O)c2ccc3c(c2)CC(C)O3)C1c1cccnc1 (stereo unspecified) :: 0.25

State the recorded inhibition for every item in the following list.
1. CCCC(=O)N1c2ccc(-c3csc(N)n3)cc2CC1C (stereo unspecified)
2. N#Cc1c(N)n(CCOC(=O)c2ccc(Cl)cc2)c2nc3ccccc3nc12
3. COc1ccc(NC2CC(=O)N(C)C2=O)cc1 (stereo unspecified)
4. Cn1c(CNc2nc(-c3ccccc3)cs2)nnc1SCC(=O)c1ccccc1
5. Cc1ccc(C(=O)NCC(=O)O)cc1S(=O)(=O)N1CCCCC1
6. Cc1ccc(NC(=O)C2CCCN(S(=O)(=O)c3c(C)noc3C)C2)c(C)c1 (stereo unspecified)

OUTPUT:
1.69
0.87
-3.47
-1.17
6.73
-0.58
